# Tested on: SK-OV-3
# procedure.text: NCI tumour cell line growth inhibition, 48 h
Activity calls are given as the source filed them. No stated cut-off is given here; in the data, active = GI50 up to about 1.1 µM and inactive = higher.
Listing: GI50 of selected compounds
endpoint.label: GI50

INSERT INTO results (compound, endpoint_label, result) VALUES
  ('C#CCOC(=O)c1ccc(OC(C)=O)cc1', 'GI50', '> 100 µM (inactive)'),
  ('COC(=O)CCc1c(Cc2ccc[nH]2)[nH]c(C(=O)OCc2ccccc2)c1C', 'GI50', '> 100 µM (inactive)'),
  ('O=C1CCCCC1CN1CCCCC1 (stereo unspecified)', 'GI50', '> 100 µM (inactive)'),
  ('C[C@]12CCC3[C@@H](CC[C@@H]4c5nonc5CC[C@]34C)C1CCC(=O)N2 (stereo partly specified)', 'GI50', '> 100 µM (inactive)'),
  ('COC(=O)c1ccccc1N1C(=O)Cc2ccccc2C1=O', 'GI50', '42.9 µM (inactive)'),
  ('COC(=O)/C=C1/SC(/C(=C(/[O-])OC)[n+]2ccc3ccccc3c2)=NC1=O', 'GI50', '> 100 µM (inactive)'),
  ('C#CCCCC(=O)N(C(=O)C[S+]([O-])CC)c1ccccc1 (stereo unspecified)', 'GI50', '> 100 µM (inactive)'),
  ('COc1cc(/C=C2\N=C(c3ccccc3)N(/N=C/c3cc4cc(C)ccc4nc3Cl)C2=O)cc(OC)c1OC', 'GI50', '59.8 µM (inactive)'),
  ('c1cc2c(cc1NC1=NCCO1)CCCC2', 'GI50', '4.38 µM (inactive)'),
  ('C=CC(C)(C)n1cc(C2=C(O)C(=O)C(c3c(CC=C(C)C)[nH]c4ccccc34)=C(O)C2=O)c2ccccc21', 'GI50', '2.14 µM (inactive)'),
  ('CN(C)c1ccc(/C=N\NC(=O)c2ccccc2Nc2ccccc2C(=O)N/N=C/c2ccc(N(C)C)cc2)cc1', 'GI50', '> 100 µM (inactive)'),
  ('O=C(N/C(=C\c1ccc(F)cc1)c1nc2ccccc2[nH]1)c1ccccc1', 'GI50', '> 100 µM (inactive)'),
  ('C#CCOC(=O)C(N)C(C)O (stereo unspecified)', 'GI50', '> 100 µM (inactive)'),
  ('O=C(NN1C(=O)CS(=O)(=O)C1c1cccc(F)c1)c1ccncc1 (stereo unspecified)', 'GI50', '> 100 µM (inactive)'),
  ('CCc1cccc(CC)c1NC(=S)NC(=O)c1ccc(Br)cc1', 'GI50', '64.9 µM (inactive)'),
  ('O=C(Nc1ccccc1)c1ccc(Cl)c([N+](=O)[O-])c1', 'GI50', '23.6 µM (inactive)'),
  ('CCCc1c(OC)c(=O)c2c(OC)cc(OC)c3c4c(OC)cc(OC)c5c(=O)c(OC)c(CCC)c(c1c23)c54', 'GI50', '15.5 µM (inactive)'),
  ('O=C(NO)c1ccc(C(=O)NO)cc1', 'GI50', '12 µM (inactive)'),
  ('O=c1c(C(c2ccc([N+](=O)[O-])cc2)c2c(O)c3ccccc3n(-c3ccccc3)c2=O)c(O)c2ccccc2n1-c1ccccc1', 'GI50', '7.38 µM (inactive)'),
  ('C#CCN(Cc1ccc2[nH]c(N)nc(=O)c2c1)c1ccc(C(=O)NC(CCC(=O)O)C(=O)O)cc1 (stereo unspecified)', 'GI50', '> 100 µM (inactive)'),
  ('Cc1ncc([N+](=O)[O-])n1CCNC(=O)Cn1ccnc1[N+](=O)[O-]', 'GI50', '> 100 µM (inactive)');
